system: ES7; assay: cells; assay type: functional, cell-based; details: Homo sapiens;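 further: growth inhibition of cultured human ES7 cells, read out as cell viability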
Description: SANGER: Inhibition of human ES7 cell growth in a cell viability assay.
pIC50: −log10 of the molar value.
property: pIC50

The following compounds have reported results that may help.
compound	pIC50
C[C@]1(c2nc3c(C(N)=O)cccc3[nH]2)CCCN1	< 5.30
CC(O)(CS(=O)(=O)c1ccc(F)cc1)C(=O)Nc1ccc(C#N)c(C(F)(F)F)c1 (configuration not stated) [BICALUTAMIDE]	< 5.99

For Cc1nc(Nc2ncc(C(=O)Nc3c(C)cccc3Cl)s2)cc(N2CCN(CCO)CC2)n1 the compound record lists pIC50 as < 5.89

----------
tested on: KM12; experiment: cells; type: functional, cell-based; conditions: Homo sapiens;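 further: KM12 cell growth inhibition, read out with a cell viability assay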
Description: SANGER: Inhibition of human KM12 cell growth in a cell viability assay.
property: pIC50
Recall that pIC50 is obtained by taking minus log10 of the concentration measured in molar.

A selection of reference data follows.
chem_smiles	number
Cn1cc(/C=C2\C(=O)Nc3cccnc32)c2ccccc21	5.71
CC[C@]1(O)C[C@@H]2CN(CCc3c([nH]c4ccccc34)[C@@](C(=O)OC)(c3cc4c(cc3OC)N(C)[C@H]3[C@@](O)(C(=O)OC)[C@H](OC(C)=O)[C@]5(CC)C=CCN6CC[C@]43[C@@H]65)C2)C1	7.84

Recorded pIC50 (molecule CO[C@@]12[C@H](COC(N)=O)C3=C(C(=O)C(C)=C(N)C3=O)N1C[C@@H]1N[C@@H]12 ): 5.97

# molecule CCNC(=O)c1noc(-c2cc(C(C)C)c(O)cc2O)c1-c1ccc(CN2CCOCC2)cc1 ; its pIC50 = 7.85

----------
Parameter IC50: see the listing below.
test system: NOMO-1; assay: cells; type: functional, cell-based; conditions: Homo sapiens;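 further: growth inhibition of human NOMO-1 cells measured by a cell viability assay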
Description: SANGER: Inhibition of human NOMO-1 cell growth in a cell viability assay.

> print(dat)
                                   compound     result
1  CCn1c(-c2nonc2N)nc2cnc(Oc3cccc(NC(=O)c4ccc(OCCN5CCOCC5)cc4)c3)cc21 [GSK-269962A]   > 2.5 µM
2  CO[C@@]12[C@H](COC(N)=O)C3=C(C(=O)C(C)=C(N)C3=O)N1C[C@@H]1N[C@@H]12 [MITOMYCIN]   0.151 µM
3  CC(C)=CC[C@@H](O)C1=CC(=O)c2c(O)ccc(O)c2C1=O [SHIKONIN]    1.16 µM
4  Cc1ccc(NC(=O)c2cccc(C(C)(C)C#N)c2)cc1Nc1ccc2ncn(C)c(=O)c2c1    1.21 µM
5  CCNC(=O)c1noc(-c2cc(C(C)C)c(O)cc2O)c1-c1ccc(CN2CCOCC2)cc1 [LUMINESPIB]  0.0717 µM

Looking up Cc1nc(Nc2ncc(C(=O)Nc3c(C)cccc3Cl)s2)cc(N2CCN(CCO)CC2)n1 [DASATINIB] , I see its IC50 listed as > 1.28 µM

The recorded IC50 for COc1cc(Nc2c(C#N)cnc3cc(OCCCN4CCN(C)CC4)c(OC)cc23)c(Cl)cc1Cl [BOSUTINIB] is > 2 µM

----------
test system: KNS-42; test: cells; type: functional, cell-based; conditions: Homo sapiens
Description: SANGER: Inhibition of human KNS-42 cell growth in a cell viability assay.
property: IC50

Some solved entries appear below for comparison.
> print(dat)
                                chem.smiles      result
1     Cn1cc(/C=C2\C(=O)Nc3cccnc32)c2ccccc21      > 2 µM
2  COc1cc(Nc2c(C#N)cnc3cc(OCCCN4CCN(C)CC4)c(OC)cc23)c(Cl)cc1Cl      > 2 µM
3  CCNc1cc(N[C@H]2CC[C@@H](O)CC2)nc(Nc2ccc3c(ccn3Cc3ccccc3)c2)n1   > 5.12 µM
4  C[C@]12O[C@H](C[C@]1(O)CO)n1c3ccccc3c3c4c(c5c6ccccc6n2c5c31)CNC4=O      > 2 µM
5  CCNC(=O)c1noc(-c2cc(C(C)C)c(O)cc2O)c1-c1ccc(CN2CCOCC2)cc1  > 0.256 µM

Recorded IC50 for CC(=O)c1c(C)c2cnc(Nc3ccc(N4CCNCC4)cn3)nc2n(C2CCCC2)c1=O on KNS-42 was > 4 µM
